Where these numbers come from: ChEMBL document CHEMBL1124429

Species on record: Canis familiaris
assay_overview: Maximum Percent change from control in the rate of rise of phase 0 of the action potential at 10 uM concentration on Canine Purkinje fibers.
Assay type: functional, Canis lupus familiaris, Purkinje fiber
reported_conditions: dog, in vitro
Label condition met when Vmax >= -30%; otherwise condition not met.

State whether the measured Vmax reaches -30%, counting equality as reaching it, for `CCN(CC)CCNC(=O)c1cc2ccccc2[nH]1`
condition met

State whether the measured Vmax reaches -30%, counting equality as reaching it, for `CCN(CC)CCNC(=O)c1[nH]c(C)c(C)c1C`
condition met

State whether the measured Vmax reaches -30%, counting equality as reaching it, for `CCN(CC)CCCNC(=O)c1cc2ccccc2[nH]1`
condition met

State whether the measured Vmax reaches -30%, counting equality as reaching it, for `CCN(CC)CCCNC(=O)c1cc2cccc(OCc3ccccc3)c2[nH]1`
condition not met

----------
Species: Canis familiaris
assay_overview: Maximum Percent change from control in the rate of rise of phase 0 of the action potential at 100 uM concentration on Canine Purkinje fibers.
Assay type: organism-based, Canis lupus familiaris, Purkinje fiber
reported_conditions: dog, in vitro
measured_metric: Vmax (%)
Use % as the unit, but write only the number.

May I ask what Vmax has been recorded for `CCN(CC)CCNC(=O)c1cc2cccc(O)c2[nH]1` ?
-35

May I ask what Vmax has been recorded for `CCN(CC)CCNC(=O)c1[nH]c(C)c(C)c1C` ?
-42

May I ask what Vmax has been recorded for `CCN(CC)CCNC(=O)c1cc2ccccc2[nH]1` ?
-35

May I ask what Vmax has been recorded for `CCN(CC)CCNC(=O)c1c(C)[nH]c(C)c1C` ?
-45

May I ask what Vmax has been recorded for `CCN(CC)CCCNC(=O)c1cc2cccc(O)c2[nH]1` ?
-45

May I ask what Vmax has been recorded for `CCN(CC)CCNC(=O)c1c(O)cc(C)nc1C` ?
-7

----------
Species on record: Canis familiaris
assay_overview: Maximum Percent change from control in the rate of rise of phase 0 of the action potential at 30 uM concentration on Canine Purkinje fibers.
Set-up: species or system Canis lupus familiaris, Purkinje fiber
reported_conditions: dog, in vitro
measured_metric: Vmax (%)
Use % as the unit, but write only the number.

May I ask what Vmax has been recorded for `CCN(CC)CCCNC(=O)c1c(O)cc(C)nc1C` ?
-1

May I ask what Vmax has been recorded for `CCN(CC)CCNC(=O)c1cc2ccccc2[nH]1` ?
-6

May I ask what Vmax has been recorded for `CCN(CC)CCCNC(=O)c1cc2cccc(OCc3ccccc3)c2[nH]1` ?
-56

May I ask what Vmax has been recorded for `CCN(CC)CCCNC(=O)c1c(C)[nH]c(C)c1C` ?
-14

May I ask what Vmax has been recorded for `CCN(CC)CCNC(=O)c1cc2cccc(OCc3ccccc3)c2[nH]1` ?
-66

May I ask what Vmax has been recorded for `CCN(CC)CCNC(=O)c1c(O)cc(C)nc1C` ?
-12

May I ask what Vmax has been recorded for `CCN(CC)CCNC(=O)c1cc2cccc(O)c2[nH]1` ?
-19
